# assayedSystem: Tyrosine-protein phosphatase non-receptor type 1 (Homo sapiens, UniProt P18031)
# Sequence (P18031 whole entry): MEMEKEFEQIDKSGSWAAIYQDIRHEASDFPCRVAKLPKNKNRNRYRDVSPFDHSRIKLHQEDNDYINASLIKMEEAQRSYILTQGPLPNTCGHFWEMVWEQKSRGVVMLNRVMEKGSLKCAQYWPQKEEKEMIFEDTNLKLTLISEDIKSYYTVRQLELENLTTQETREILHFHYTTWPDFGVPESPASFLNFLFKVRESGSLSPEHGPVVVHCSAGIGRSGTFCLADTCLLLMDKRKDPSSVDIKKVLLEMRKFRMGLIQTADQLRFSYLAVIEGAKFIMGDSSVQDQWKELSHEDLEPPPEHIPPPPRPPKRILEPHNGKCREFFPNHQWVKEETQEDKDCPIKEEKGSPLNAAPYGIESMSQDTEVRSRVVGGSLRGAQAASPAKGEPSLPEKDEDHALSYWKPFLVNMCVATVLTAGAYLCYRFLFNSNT
# procedureSummary: Inhibition of recombinant PTP1B expressed in Escherichia coli BL21 after 30 mins by spectrophotometry
pIC50: −log10 of the molar value.
readoutKind: pIC50

CC1(C)CC[C@]2(COC(=O)c3ccccc3C(=O)O)CC[C@]3(C)C(=CC[C@@H]4[C@@]5(C)CCC(=O)C(C)(C)[C@@H]5CC[C@]43C)[C@@H]2C1 | 5.51
CC1(C)CC[C@]2(COC(=O)CC(=O)O)CC[C@]3(C)C(=CC[C@@H]4[C@@]5(C)CCC(=O)C(C)(C)[C@@H]5CC[C@]43C)[C@@H]2C1 | 5.39
CC1(C)CC[C@]2(COC(=O)CCCC(=O)O)CC[C@]3(C)C(=CC[C@@H]4[C@@]5(C)CCC(=O)C(C)(C)[C@@H]5CC[C@]43C)[C@@H]2C1 | 5.19
CC1(C)CC[C@]2(COC(=O)CCC(=O)O)CC[C@]3(C)C(=CC[C@@H]4[C@@]5(C)CCC(=O)C(C)(C)[C@@H]5CC[C@]43C)[C@@H]2C1 | 5.34
